- Protocol description: Bioavailability in rat at 5 mg/kg, iv
- Assay type: ADME, organism-based
- Experimental setup: in vivo
Reported endpoint: bioavailability

Task: Name the reported bioavailability value associated with the molecule O=C(CO)N1CCC(c2n[nH]c(-c3ccc(Cl)cc3)c2-c2ccncn2)CC1
Result: > 80%

----------
- Protocol description: Volume of distribution in rat at 5 mg/kg, iv
- Type: ADME, organism-based
- Set-up: dose 5 mg/kg, route intravenous
- Experimental setup: in vivo
Reported endpoint: Vd (L/kg)
Numbers only here, please. The scale is L/kg.

Task: Which Vd value belongs to O=C(CO)N1CCC(c2n[nH]c(-c3ccc(Cl)cc3)c2-c2ccncn2)CC1 ?
Result: 1.74

----------
- Protocol description: Volume of distribution in dog at 2.5 mg/kg, iv
- Assay type: ADME, organism-based, Canis lupus familiaris
- Design: dose 2.5 mg/kg, route intravenous
- Experimental setup: in vivo
Reported endpoint: Vd (L/kg)
Report as a plain number; the unit L/kg is understood.

Task: Endpoint output: Vd of O=C(CO)N1CCC(c2n[nH]c(-c3ccc(Cl)cc3)c2-c2ccncn2)CC1 . Value?
Result: 1.07

----------
- Protocol description: Bioavailability in dog at 2.5 mg/kg, iv
- Format: ADME, organism-based, Canis lupus familiaris
- Experimental setup: in vivo
Reported endpoint: bioavailability

Task: bioavailability for O=C(CO)N1CCC(c2n[nH]c(-c3ccc(Cl)cc3)c2-c2ccncn2)CC1 [SD-0006] ?
Result: > 80%

----------
- Protocol description: Clearance in dog at 2.5 mg/kg, iv
- Type: ADME, organism-based, Canis lupus familiaris
- Design: dose 2.5 mg/kg, route intravenous
- Experimental setup: in vivo
Reported endpoint: clearance (mL/min/kg)
Give the number; mL/min/kg is assumed, so skip it.

Task: Quick check: clearance of O=C(CO)N1CCC(c2n[nH]c(-c3ccc(Cl)cc3)c2-c2ccncn2)CC1 ?
Result: 2.92

----------
Reported IC50 values are given for each entry in this list.
- Measured target: Mitogen-activated protein kinase 14 (Homo sapiens)
- Sequence (Q16539 whole entry): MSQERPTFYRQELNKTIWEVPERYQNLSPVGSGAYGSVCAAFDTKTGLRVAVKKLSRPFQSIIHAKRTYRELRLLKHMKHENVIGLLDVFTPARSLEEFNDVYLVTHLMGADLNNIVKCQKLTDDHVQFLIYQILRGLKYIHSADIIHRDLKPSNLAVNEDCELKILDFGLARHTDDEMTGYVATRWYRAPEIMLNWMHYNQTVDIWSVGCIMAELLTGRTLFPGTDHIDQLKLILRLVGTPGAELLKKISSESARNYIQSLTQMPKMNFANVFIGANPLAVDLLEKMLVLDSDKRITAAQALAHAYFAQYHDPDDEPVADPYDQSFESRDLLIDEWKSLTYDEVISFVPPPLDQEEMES
- Protocol description: Inhibition of p38alpha assessed as gamma-[33P]ATP incorporation by scintillation counting
Field: numeric (nM). Do not append units.

Recorded IC50, per entry:
Clc1ccc(-c2n[nH]c(C3CCN(C4CCOC4)CC3)c2-c2ccncn2)cc1 (stereo unspecified) | 31
O[C@H]1CCC[C@@H]1N1CCC(c2[nH]nc(-c3ccc(Cl)cc3)c2-c2ccncn2)CC1 | 19
CC(=O)N1CCC(c2[nH]nc(-c3ccc(Cl)cc3)c2-c2ccncc2)CC1 | 68
CS(=O)(=O)N1CCC(c2[nH]nc(-c3ccc(Cl)cc3)c2-c2ccncn2)CC1 | 198
Cc1ccc(-c2n[nH]c(C3CCN(C)CC3)c2-c2ccncc2)cc1 | 99.6

Task: For the compound shown here, COCCCN1CCC(c2[nH]nc(-c3ccc(Cl)cc3)c2-c2ccncc2)CC1 , give the reported IC50.
Result: 106

Task: Need IC50, item CN1CCCC(c2[nH]nc(-c3ccc(F)cc3)c2-c2ccncc2)C1 (stereo unspecified)
Result: 90

Task: Data request, read-out IC50, for OCCN1CCC(c2[nH]nc(-c3ccc(Cl)cc3)c2-c2ccncn2)CC1
Result: 35

Task: Quick check: IC50 of CC(C)(CO)N1CCC(c2[nH]nc(-c3ccc(Cl)cc3)c2-c2ccncn2)CC1 ?
Result: 184

Task: # IC50 lookup, item CS(=O)(=O)N1CCC(c2[nH]nc(-c3ccc(Cl)cc3)c2-c2ccncc2)CC1
Result: 70

Task: State the recorded IC50 for this entry: CN(C)CC(=O)N1CCC(c2[nH]nc(-c3ccc(Cl)cc3)c2-c2ccncc2)CC1
Result: 80

Task: Please look up its IC50: O=C(O)CN1CCC(c2[nH]nc(-c3ccc(Cl)cc3)c2-c2ccncc2)CC1
Result: 126

Task: Reported IC50, compound Fc1ccc(-c2n[nH]c(C3CCCNC3)c2-c2ccncc2)cc1 (stereo unspecified) : ____
Result: 48.3

Task: I have this compound here, Cc1cccc(-c2n[nH]c(C3CCN(C)CC3)c2-c2ccncc2)c1 , and I need its recorded IC50.
Result: 67.3

Task: What value of measured IC50 is listed for CN1CCC(c2[nH]nc(-c3cccc(C(F)(F)F)c3)c2-c2ccncc2)CC1 ?
Result: 26.5

Task: Bench note: what IC50 did CC(C)(O)CN1CCC(c2[nH]nc(-c3ccc(Cl)cc3)c2-c2ccncn2)CC1 show?
Result: 88
